- Test system: SF-539 CNS
- test.description: NCI tumour cell line growth inhibition, 48 h
Reported GI50 by item:

Enquiry: Dear colleague, I am looking for the recorded GI50 of the following compound: O=S(=O)(NC1=NCCN1C(=S)SN1CCn2c1nsc2=S)c1ccc(OC(F)(F)F)cc1
Return: 1.31 µM

Enquiry: Dear colleague, I am looking for the recorded GI50 of the following compound: Cc1ccc(C(=O)/C(=C/c2ccc([N+](=O)[O-])cc2)SCc2ccc(Cl)cc2)cc1
Return: 2.06 µM

Enquiry: Dear colleague, I am looking for the recorded GI50 of the following compound: O=C(Nc1ccccc1)NS(=O)(=O)c1ccc(-n2nc3c(c2-c2cccs2)Cc2ccccc2-3)cc1
Return: 25 µM

Enquiry: Dear colleague, I am looking for the recorded GI50 of the following compound: Cn1c2ccccc2c2c(Nc3ccccc3)c3ccccc3nc21
Return: 12.1 µM

Enquiry: Dear colleague, I am looking for the recorded GI50 of the following compound: O=C1CC(c2ccc3c(c2)OCO3)Nc2ccccc21 (stereo not given)
Return: 10.8 µM

* * *

Reported TGI by item:
- Tested on: TK-10 renal
- test.description: NCI tumour cell line growth inhibition, 48 h
Where a SMILES comes first, the peptide text is derived from it. [ ]: non-standard residue; d: D form. The star is where a group is joined. ξ: configuration not given here. X6 = FC(F)(F)c1cc(NC(=S)*)cc(C(F)(F)F)c1; ξF = NC(Cc1ccccc1)C(=O)O
Number only, in µM; omit the unit.

compound=O=C1/C(=C/c2ccccc2)CN(C(=O)C(Cl)(Cl)Cl)C/C1=C\c1ccccc1 readout=TGI observed_value=8.72
compound=O=C(N/C(=C\c1ccc(/C=C(\NC(=O)c2ccccc2)c2nc3cc([N+](=O)[O-])ccc3[nH]2)cc1)c1nc2cc([N+](=O)[O-])ccc2[nH]1)c1ccccc1 readout=TGI observed_value=78.5
compound="COC(=O)[C@@H](NC(=O)CNC(=O)[C@H]1CCCN1C(=O)C(Cc1ccccc1)NC(=S)Nc1cc(C(F)(F)F)cc(C(F)(F)F)c1)C(C)C (stereo partly drawn) (X6-[ξF][dP]GV-OMe)" readout=TGI observed_value=18.8
compound="CC1=C(C(=O)Nc2ccc(Cl)c(Cl)c2)C(c2cccc(Oc3ccccc3)c2)NC(=S)N1 (stereo not drawn)" readout=TGI observed_value=19.7
compound="CC1=CC2C(O1)C1C(=O)C=CC(=O)C1=CC2[N+](=O)[O-] (stereo not drawn)" readout=TGI observed_value=30.6
compound="N#CC1=C(N)N(c2ccccc2)C(c2ccco2)C1(C#N)C#N (stereo not drawn)" readout=TGI observed_value=31.5
compound=COc1cc(CNc2cnc3cc(N)cc(N)c3n2)cc(OC)c1 readout=TGI observed_value=57.6

Then there is this compound:
Enquiry: Report TGI for C#Cc1ccc(-n2c(/C=C/c3ccc(C(F)(F)F)cc3)nc3ncccc3c2=O)cc1 tested on TK-10 renal.
Return: 3.7

* * *

- Tested on: SF-295 CNS
- test.description: NCI tumour cell line growth inhibition, 48 h
Reported TGI by item:

Past entries and their recorded results:
molecule=Clc1ccc(/C=C/c2nc3ccccc3s2)cc1Cl experimental_target="SF-295 CNS" observed_value="> 100 µM"
molecule=CN(C)C(=N)c1ccccc1 experimental_target="SF-295 CNS" observed_value="> 100 µM"
molecule=CCN(CC)CCC(=O)Nc1ccc2c(c1)C(=O)c1ccc(NC(=O)CCN(CC)CC)cc1C2=O experimental_target="SF-295 CNS" observed_value="24 µM"
molecule="Cc1ccc(SCC(CSCCO)OCn2cnc3c2NC(N)=NC32OCCO2)cc1 (configuration not stated)" experimental_target="SF-295 CNS" observed_value="> 100 µM"

Enquiry: Dear colleague, I am looking for the recorded TGI of the following molecule: c1ccc2cc(-c3cc(-c4cc(-c5ccc6ccccc6c5)on4)no3)ccc2c1
Return: > 100 µM

Enquiry: Dear colleague, I am looking for the recorded TGI of the following molecule: CSc1nc2c(c(=O)[nH]1)N=C1c3ccccc3C(=O)C1C(c1ccccc1)N2 (configuration not stated)
Return: > 100 µM

Enquiry: Dear colleague, I am looking for the recorded TGI of the following molecule: Cc1ccsc1/C=N/Nc1ncccn1
Return: > 100 µM

Enquiry: Dear colleague, I am looking for the recorded TGI of the following molecule: CCOC(=O)[C@]1(OC(C)=O)C[C@H](OC(C)=O)[C@@H](C(F)COP(=O)(OCc2ccccc2)OCc2ccccc2)O1 (some centres not stated)
Return: > 100 µM

Enquiry: Dear colleague, I am looking for the recorded TGI of the following molecule: O=C1CCC(=O)N1n1c(Cc2ccccc2)n[nH]c1=O
Return: > 100 µM

Enquiry: Dear colleague, I am looking for the recorded TGI of the following molecule: CN1C(=O)C(C)(C)C2(SC(C)(C)C2(C)C)N(C)C1=S (configuration not stated)
Return: > 100 µM

Enquiry: Dear colleague, I am looking for the recorded TGI of the following molecule: COC1=CC(c2ccc[nH]2)=N/C1=C\c1[nH]c(C)c(C(=O)OC(C)C)c1C
Return: 0.123 µM
